Target: T1, biotinylated hBLyS-ECD (human, UniProt Q9Y275 134-285, biotinylated with Biotin-X-X-NHS (molar ratio 7:1); sites not stated)
T1 construct: also called biotinylated immunogen; biotinylated hBLvS-ECD
T1 sequence (Q9Y275 134-285): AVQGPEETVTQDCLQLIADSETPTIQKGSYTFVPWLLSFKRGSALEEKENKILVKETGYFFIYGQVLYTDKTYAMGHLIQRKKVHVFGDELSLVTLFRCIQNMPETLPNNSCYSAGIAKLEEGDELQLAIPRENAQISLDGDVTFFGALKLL
Assay: ELISA on captured biotinylated hBLyS-ECD; antibody 0 nM (background)
Readout Type: OD450 nm (OD450 nm)
Numbers only here, please. The scale is OD450 nm.

Identify measured OD450 nm corresponding to c8E7D9C7F5 (antibody, V domains shown, also called chimeric antibody c8E7D9C7F5) VH: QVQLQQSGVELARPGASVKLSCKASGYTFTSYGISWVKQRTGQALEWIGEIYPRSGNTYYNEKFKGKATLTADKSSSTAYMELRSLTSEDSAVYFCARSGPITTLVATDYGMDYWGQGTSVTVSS VL: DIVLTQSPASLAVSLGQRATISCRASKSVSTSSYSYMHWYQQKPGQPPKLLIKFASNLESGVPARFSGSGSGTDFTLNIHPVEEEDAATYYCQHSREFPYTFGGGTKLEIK
0.0918
